Origin of the recorded values: ChEMBL document CHEMBL3407438

Each record here notes measured CLint.
# Tested on: Liver microsome
# test protocol: Intrinsic clearance in rat liver microsome at 1 uM preincubated for 5 mins by LC-MS analysis
# Type: ADME
# settings: microsomes
State the answer as a number, implicitly in µL/min/mg.

> print(dat)
                                   molecule  unit.annotation  result
1  O=C1NCCC12CCN(c1c(Cl)cncc1-c1ccc(-c3cnoc3)cc1)CC2        µL/min/mg     136
2  Cn1ccc(-c2ccc(-c3cncc(Cl)c3N3CCC4(CCNC4=O)CC3)cc2)n1        µL/min/mg      97
3  Cn1ncc2cc(-c3cncc(Cl)c3N3CCC4(CCNC4=O)CC3)ccc21        µL/min/mg      66
4  O=C1NCCC12CCN(c1c(Cl)cncc1-c1ccc(-c3ccncc3)cc1)CC2        µL/min/mg      99
5  CN1CCN(c2ccc(-c3cncc(Cl)c3N3CCC4(CCNC4=O)CC3)cc2)CC1        µL/min/mg      10
6  Cn1cc(-c2ccc(-c3cncc(Cl)c3N3CCC4(CCNC4=O)C3)cc2)cn1 (single isomer, unassigned; enantiomer 2)        µL/min/mg     124
7  Cn1cc(-c2ccc(-c3cncc(Cl)c3N3CCC4(CCNC4=O)C3)cc2)cn1 (racemic)        µL/min/mg     213
8  O=C1NCCC12CCN(c1c(Cl)cncc1-c1ccc(N3CCCCC3)cc1)CC2        µL/min/mg     225

## Input Name the reported CLint value associated with the molecule O=C1NCCC12CCN(c1c(Cl)cncc1-c1ccc(C3CCOCC3)cc1)CC2
## Output 111

## Input Also need Cn1cc(-c2ccc(-c3cncc(Cl)c3N3CCC4(CCNC4=O)C3)cc2)cn1 (stereo in doubt; 79) , thanks.
## Output 298
